- Tested on: RXF 393 renal
- procedure details: NCI tumour cell line growth inhibition, 48 h; in the data active means GI50 below about 0.43 µM; inactive means the rest
Assign a class; possible classes are yes (active), no (inactive)

[[record]]
molecule = "CCOC(=O)c1[nH]c2c(c1C)-c1[nH]c(=O)c(S(=O)(=O)c3ccccc3)cc1SC2"
experimental_system = "RXF 393 renal"
group = "no"

[[record]]
molecule = "COc1cc[nH]c1/C=C1\\C(=O)Nc2ccc(F)c(C#CC3(O)CCOCC3)c21"
experimental_system = "RXF 393 renal"
group = "yes"

[[record]]
molecule = "Cc1ccc([P+](Cc2ccc([N+](=O)[O-])cc2)(c2ccc(C)cc2)c2ccc(C)cc2)cc1"
experimental_system = "RXF 393 renal"
group = "no"

[[record]]
molecule = "CC1Cc2c(N(C)C)ncnc2N(C)c2ccc(Cl)cc21 (stereo not given)"
experimental_system = "RXF 393 renal"
group = "no"


Moving on to the next molecule.
Per the records of this test, what outcome belongs to O=C(N[C@@H]1CCCc2ccccc21)[C@H](CCC(=O)N1CCN(C2CCCCC2)CC1)N1C(=O)[C@@H](N2C(=O)OC[C@@H]2c2ccccc2)[C@H]1/C=C/c1ccccc1 ?
no
